Reported GI50 values are given for each entry in this list.
- System: COLO 205 colon
- assayComment: NCI tumour cell line growth inhibition, 48 h

Cc1ccc2nc3c(Cl)c(C)c(=O)cc-3sc2c1: > 100 µM
O=C(c1ccc2ccccc2c1)c1c(C(F)(F)F)n([O-])c2ccc(Cl)cc2[n+]1=O: 1.34 µM
CCN(CC)CCNC(=O)c1cn2ncnc(Oc3ccc(NC(=O)Nc4ccc(Cl)c(C(F)(F)F)c4)c(F)c3)c2c1C: 1.44 µM
CCCCCCCCCCCC[n+]1ccccc1 (tested in a mixture with another compound): 0.404 µM

Req: Tell us which GI50 value is on record for "CCC1=C[C@@H]2CN(C1)Cc1c([nH]c3ccccc13)[C@@](C(=O)OC)(c1cc3c(cc1OC)N(C)[C@H]1[C@@](O)(C(=O)OC)[C@H](OC(C)=O)[C@]4(CC)[C@@H]5C[C@@H]5CN5CC[C@]31[C@@H]54)C2"
Resp: < 0.005 µM

Req: Output GI50 of "Cn1c(/C(C#N)=C/c2ccc3ccccc3c2)cc2ccccc21"
Resp: 0.309 µM

Req: Please report GI50 for the following compound: "CCCCCCCCCCN=C(c1ccc(N(C)C)cc1)c1ccc(N(C)C)cc1"
Resp: 0.933 µM

Req: Find the measured GI50 of "CC1(C)N=C(N)N=C(N)N1c1ccc(OCC(=O)Nc2ccccc2)c(Cl)c1" and report it.
Resp: 18.3 µM

Req: Return GI50 (reported value) for this compound: CCCCCCCCCCCCCCCCCCNC(=O)[C@H]1CSC(c2cccs2)N1 (stereo partly drawn)
Resp: > 50 µM

Req: Dear colleague, please send me the reported GI50 for "c1ccc2nc3c(cc4ccccn43)nc2c1" when you can.
Resp: 64 µM

Req: Quick one: give measured GI50 for "O=S1(=O)NCCCN1CCNc1nccc(-c2c(-c3cccc(O)c3)nc3sccn23)n1"
Resp: 0.581 µM

Req: Indicate its recorded GI50; the compound in question is "COc1ccc(-c2nnc(N3CCN(C(=O)CN4CCN(c5ccc(OC)cc5)CC4)CC3)nc2-c2ccc(OC)cc2)cc1"
Resp: 6.36 µM

Req: Fill in GI50 for record "COc1ccccc1/C=C/C(=O)/C=C/c1ccccc1O"
Resp: 1.11 µM

###

Listed here: items and their measured TGI.
- Test system: NCI-H23 lung
- assayComment: NCI tumour cell line growth inhibition, 48 h

Below: 5 compounds and their reported TGI.
CCCCCCCCCCN=C(c1ccc(N(C)C)cc1)c1ccc(N(C)C)cc1: > 75.4 µM
CCCCCCCCCCCCCCCCCCNC(=O)[C@H]1CSC(c2cccs2)N1 (some centres not stated): 17.7 µM
CC1CCCc2c1nn(C(=O)/C=C(\N)c1ccccc1)c2N (configuration not stated): 92.9 µM
Cc1ccc2c(c1)Sc1ccc(N=NN(C)C)cc1N2C: > 100 µM
CCOC(=O)/C=C(\C)c1ccc(C)cc1C: > 100 µM

Req: Retrieve TGI on NCI-H23 lung; query "Cn1c([N+](=O)[O-])cnc1/C=C1\Oc2cc(Cl)ccc2C1=O"
Resp: 4.47 µM

Req: Consider the compound C[n+]1c2ccccc2cc2c(CNC(CCCN=C(N)N)C(=O)O)cccc21 (configuration not stated) tested on NCI-H23 lung; state its TGI.
Resp: 18.4 µM

Taken from PubChem BioAssay (NCI).
